Measured protein stability index, listed per entry.
B1: CCDC6 (parent)
chain: TLFKKIQALQKEKETLAVNYEKEE

Variants of: B1
Protocol text: protein stability index of a GFP-peptide fusion (GPS, HEK-293T) (PSI 1-6); higher = more stable;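 note: lentivirally expressed fusions sorted by FACS into six bins by GFP to DsRed ratio, PSI derived from sequencing read proportions per bin multiplied by bin number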
Condition description: c terminus: a fixed tail appended
Write no unit; give the number alone.

>>> df
   mutation_key  experimental_value
0          N19S                2.99
1           K5F                1.61
2          E24W                1.91
3           I6H                4.17

QUERY: Entry under review: E14H . Reported protein stability index?
RESULT: 2.58

QUERY: // query: L2W
RESULT: 3.68

QUERY: // query: Y20G
RESULT: 3.71

QUERY: // query: K5A
RESULT: 2.43

QUERY: // query: K11C
RESULT: 3.12

QUERY: // query: K5P
RESULT: 4.74

QUERY: // query: A17I
RESULT: 2.85

QUERY: // query: E21S
RESULT: 3.06

QUERY: // query: Q7E
RESULT: 3.57
